- Measured target: HLA-B*07:0 (Homo sapiens)
- Measurement protocol: MHC binding assay, UV-ligand exchange ELISA
- Conditions used: peptide exchange yield, binding to HLA-B*07:0
Measure name: Peptide exchange

1. 208 (YVGPTRLEL; listed as Homo sapiens) [compound 208] : ++++ (≥75% = ++++)
2. 103 (RPWLSSPTGL; listed as Homo sapiens) [compound 103] : ++++ (≥75% = ++++)
3. 192 (IPLHFSTAF; listed as Homo sapiens) [compound 192] : ++++ (≥75% = ++++)
4. 78 (TPSHSTPSF; listed as Homo sapiens) [compound 78] : +++ (≥50% = +++)
5. 63 (MPANFETIGF; listed as Homo sapiens) [compound 63] : ++++ (≥75% = ++++)
6. 15 (SPVETRSLL; listed as Homo sapiens) [compound 15] : +++ (≥50% = +++)
7. 215 (TPLTRTTL; listed as Homo sapiens) [compound 215] : +++ (≥50% = +++)
8. 41 (APQPRSLAA; listed as Homo sapiens) [compound 41] : ++++ (≥75% = ++++)
9. 96 (HPRESLNMLVAF; listed as Homo sapiens) [compound 96] : ++++ (≥75% = ++++)
10. 110 (APSLARFLSL; listed as Homo sapiens) [compound 110] : ++++ (≥75% = ++++)
11. 93 (SPIGLSLIL; listed as Homo sapiens) [compound 93] : ++++ (≥75% = ++++)
12. 111 (RPIWDVRSA; listed as Homo sapiens) [compound 111] : ++++ (≥75% = ++++)
13. 100 (SPAPSLARFLSL; listed as Homo sapiens) [compound 100] : ++++ (≥75% = ++++)
14. 214 (RPSPVRVAAL; listed as Homo sapiens) [compound 214] : ++++ (≥75% = ++++)

The origin of these recorded values is patent US11957716B2.
